B1: H2-Kb / E4 (parent)
chain 1: AQSVTQPDARVTVSEGASLQLRCKYSYSGTPYLFWYVQYPRQGLQLLLKYYSGDPVVQGVNGFEAEFIKSNSSFHLRKASVHWSDSAVYFCAVSAGQGGSAKLIFGEGTKLTVSS
chain 2: GGIITQTPKFLIGQEGQKLTLKCQQNFNHDTMYWYRQDSGKGLRLIYYSITENDLQKGDLSEGYDASREKKSSFSLTVTSAQKNEMAVFLCASSIWGDSYEQYFGPGTRLTVL
chain 3: not shown
chain 4: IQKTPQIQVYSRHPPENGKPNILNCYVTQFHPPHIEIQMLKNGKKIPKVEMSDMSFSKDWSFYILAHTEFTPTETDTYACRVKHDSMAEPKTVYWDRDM
chain 5: SIINFEKL

Variants of: B1
Assay: % of reporter cells activated (NFAT-GFP), raw; also: test concentration or dose not given here
Settings: with E4
measure: ratio to parent

chain 5 I3A; 0.921
chain 5 N4Q; 0.714
chain 5 N4L; 1.02
chain 5 L8N; 0.778

a = chain 5 I2L
b = chain 5 I2D
c = chain 5 F5C
d = chain 5 L8S
e = chain 5 N4W
Sort the variants on ratio to parent; start with the lowest figure. // respond by listing labels in the order requested
e, d, b, a, c
(e: 0.286, d: 0.51, b: 0.762, a: 1.1, c: 1.63)
